- System: K562
- measurementDescription: Antiproliferative activity against human K562 cells assessed as cell growth inhibition at 10 uM incubated for 24 hrs by sulforhodamine B assay
- Assay type: functional
- measurementSetup: read-out: GI
Assign Met to entries whose inhibition of growth at 10 µM meets or exceeds 10%; assign Not met to the rest.

Please review the entries below; each comes with its answer.
Query: Dear colleague, could you confirm whether NS(=O)(=O)c1ccc(Nc2cc(-c3ccccc3)nc(SCC(=O)c3ccc(Br)cc3)n2)cc1 has inhibition of growth at 10 µM at or above 10%?
Result: Met

Query: Dear colleague, could you confirm whether COc1ccc(C(=O)CSc2nc(Nc3cccc(S(N)(=O)=O)c3)cc(-c3ccccc3)n2)cc1 has inhibition of growth at 10 µM at or above 10%?
Result: Met

Query: Dear colleague, could you confirm whether Cc1ccc(-c2nc(SCC(=O)c3ccccc3)nc(Nc3ccc(S(N)(=O)=O)cc3)c2C#N)cc1 has inhibition of growth at 10 µM at or above 10%?
Result: Met

Query: Dear colleague, could you confirm whether Cc1ccc(-c2nc(SCC(=O)c3ccc(Br)cc3)nc(Nc3ccc(S(N)(=O)=O)cc3)c2C#N)cc1 has inhibition of growth at 10 µM at or above 10%?
Result: Not met

Query: Dear colleague, could you confirm whether COc1ccc(C(=O)CSc2nc(Nc3cccc(S(N)(=O)=O)c3)c(C#N)c(-c3cc(OC)ccc3OC)n2)cc1 has inhibition of growth at 10 µM at or above 10%?
Result: Met

Read the next record carefully.
Query: Dear colleague, could you confirm whether CC(C)c1nc(SCC(=O)c2ccc(Br)cc2)nc(Nc2ccc(S(N)(=O)=O)cc2)c1C#N has inhibition of growth at 10 µM at or above 10%?
Result: Not met

----------
- Tested on: HL-60
- measurementDescription: Antiproliferative activity against human HL-60 cells assessed as cell growth inhibition at 10 uM incubated for 24 hrs by sulforhodamine B assay
- Assay type: functional
- measurementSetup: read-out: GI
parameter: inhibition of growth at 10 µM (%)
Give your result in % as a bare value.

Use the examples below as a reference point.
Query: What value of measured inhibition of growth at 10 µM is listed for CC(C)c1nc(SCC(=O)c2ccccc2)nc(Nc2cccc(S(N)(=O)=O)c2)c1C#N ?
Result: 25.2

Query: What value of measured inhibition of growth at 10 µM is listed for COc1ccc(OC)c(-c2nc(SCC(=O)c3ccc(Br)cc3)nc(Nc3ccc(S(N)(=O)=O)cc3)c2C#N)c1 ?
Result: 74.1

Query: What value of measured inhibition of growth at 10 µM is listed for COc1ccc(C(=O)CSc2nc(Nc3ccc(S(N)(=O)=O)cc3)cc(-c3ccccc3)n2)cc1 ?
Result: 15

Query: What value of measured inhibition of growth at 10 µM is listed for CC(C)c1nc(SCC(=O)c2ccccc2)nc(Nc2ccc(S(N)(=O)=O)cc2)c1C#N ?
Result: 5.93

Alright, here's another molecule for you.
Query: What value of measured inhibition of growth at 10 µM is listed for COc1ccc(OC)c(-c2nc(SCC(=O)c3ccc(Br)cc3)nc(Nc3cccc(S(N)(=O)=O)c3)c2C#N)c1 ?
Result: 10.3

----------
- Test system: SR
- measurementDescription: Antiproliferative activity against human SR cells assessed as cell growth inhibition at 10 uM incubated for 24 hrs by sulforhodamine B assay
- Type: functional
- measurementSetup: read-out: GI
parameter: inhibition of growth at 10 µM (%)
Give your result in % as a bare value.

Query: What value of measured inhibition of growth at 10 µM is listed for COc1ccc(C(=O)CSc2nc(Nc3cccc(S(N)(=O)=O)c3)c(C#N)c(-c3cc(OC)ccc3OC)n2)cc1 ?
Result: 12.7

---
Query: What value of measured inhibition of growth at 10 µM is listed for Cc1ccc(-c2nc(SCC(=O)c3ccc(Br)cc3)nc(Nc3ccc(S(N)(=O)=O)cc3)c2C#N)cc1 ?
Result: 11.4

Query: What value of measured inhibition of growth at 10 µM is listed for COc1ccc(C(=O)CSc2nc(Nc3ccc(S(N)(=O)=O)cc3)c(C#N)c(C(C)C)n2)cc1 ?
Result: 11.7

Query: What value of measured inhibition of growth at 10 µM is listed for COc1ccc(C(=O)CSc2nc(Nc3cccc(S(N)(=O)=O)c3)c(C#N)c(C(C)C)n2)cc1 ?
Result: 11

Query: What value of measured inhibition of growth at 10 µM is listed for COc1ccc(C(=O)CSc2nc(Nc3ccc(S(N)(=O)=O)cc3)cc(-c3ccccc3)n2)cc1 ?
Result: 27

Query: What value of measured inhibition of growth at 10 µM is listed for COc1ccc(OC)c(-c2nc(SCC(=O)c3ccc(Br)cc3)nc(Nc3cccc(S(N)(=O)=O)c3)c2C#N)c1 ?
Result: 30.5
